Exercise: for every item that follows, state its recorded Stability in Presence of Cu^+2 Ions, % Remaining.
test.details: Perborate stabilization in the presence of Cu ions (peroxide remaining after hot storage, iodine/starch titration)
applied.conditions: 4.7×10^-8 mols Cu^II; 4.2×10^-7 mols stabilizer in 100 ml; pH 10.1; 70° C.
Supply the numeric figure in %, leaving out any unit text.

Ask | Using known records, supply Stability in Presence of Cu^+2 Ions, % Remaining for O=C(O)CSC(CC(=O)O)C(=O)O (centres unmarked)
Reply | 31.3

Ask | Indicate the recorded Stability in Presence of Cu^+2 Ions, % Remaining value for this compound: `O=C(O)CCN(CC(=O)O)CC(=O)O`
Reply | 50.4

Ask | Tell us which Stability in Presence of Cu^+2 Ions, % Remaining value is on record for O=C(O)CC(C(=O)O)N(CC(=O)O)CC(=O)O (centres unmarked)
Reply | 28.6

Ask | For the compound O=C(O)CN(CCN(CC(=O)O)CC(=O)O)CC(=O)O [EDTA, Ethylenediaminetetraacetic acid, reference compound] , give its reported Stability in Presence of Cu^+2 Ions, % Remaining.
Reply | 82.8

Ask | Write down Stability in Presence of Cu^+2 Ions, % Remaining measured for item O=C(O)CC(NC(CC(=O)O)C(=O)O)C(=O)O (centres unmarked)
Reply | 79.0
